Quick list: IC50 per entry.
# method notes: Antiproliferative activity against human Hep2C cells after 24 hrs by MTT assay
# Assay type: functional, cell-based
measured attribute: IC50 (µM)

[[record]]
line_notation = "c1ccc(-c2cc(-c3ccccc3)c3c4c(ccc3n2)OCO4)cc1"
measured_attribute = "IC50"
endpoint_unit = "µM"
numeric_value = 951

[[record]]
line_notation = "Cc1ccc(-c2cc(-c3ccccc3)c3cc(Br)ccc3n2)cc1"
measured_attribute = "IC50"
endpoint_unit = "µM"
numeric_value = 175

[[record]]
line_notation = "Oc1ccc(-c2cc(-c3ccccc3)c3cc(Br)ccc3n2)cc1"
measured_attribute = "IC50"
endpoint_unit = "µM"
numeric_value = 105

[[record]]
line_notation = "COc1ccc2nc(-c3ccccc3)cc(-c3ccccc3)c2c1"
measured_attribute = "IC50"
endpoint_unit = "µM"
numeric_value = 496

[[record]]
line_notation = "Brc1ccc2nc(-c3ccccc3)cc(-c3ccccc3)c2c1"
measured_attribute = "IC50"
endpoint_unit = "µM"
numeric_value = 128

[[record]]
line_notation = "Clc1ccc(-c2cc(-c3ccccc3)c3cc(Br)ccc3n2)cc1"
measured_attribute = "IC50"
endpoint_unit = "µM"
numeric_value = 269

[[record]]
line_notation = "N#Cc1ccc(-c2cc(-c3ccccc3)c3cc(Br)ccc3n2)cc1"
measured_attribute = "IC50"
endpoint_unit = "µM"
numeric_value = 98.8

[[record]]
line_notation = "Fc1ccc(-c2cc(-c3ccccc3)c3cc(Br)ccc3n2)cc1"
measured_attribute = "IC50"
endpoint_unit = "µM"
numeric_value = 5

[[record]]
line_notation = "Brc1ccc2nc(-c3ccco3)cc(-c3ccccc3)c2c1"
measured_attribute = "IC50"
endpoint_unit = "µM"
numeric_value = 102


---

Reported log10 IC50 values for a set of compounds
# method notes: Antiproliferative activity against human NCI-H226 cells harboring TP53 mutant after 24 hrs by MTT assay
# Type: functional, cell-based
# particulars: NCI-H226, 24 h
measured attribute: log10 IC50 (log10 of the value in µM)

[[record]]
line_notation = "Oc1ccc(-c2cc(-c3ccccc3)c3cc(Br)ccc3n2)cc1"
numeric_value = 0.90

[[record]]
line_notation = "O=[N+]([O-])c1cccc(-c2cc(-c3ccccc3)c3cc(Br)ccc3n2)c1"
numeric_value = 0.93

[[record]]
line_notation = "O=[N+]([O-])c1ccc2c(-c3ccccc3)cc(-c3ccccc3)nc2c1"
numeric_value = 2.75

[[record]]
line_notation = "Brc1ccc2nc(-c3ccccc3)cc(-c3ccccc3)c2c1"
numeric_value = 1.64

[[record]]
line_notation = "Brc1ccc2nc(-c3ccco3)cc(-c3ccccc3)c2c1"
numeric_value = 1.48

[[record]]
line_notation = "c1ccc(-c2cc(-c3ccccc3)c3c4c(ccc3n2)OCO4)cc1"
numeric_value = 1.60

[[record]]
line_notation = "COc1cc(-c2cc(-c3ccccc3)c3cc(Br)ccc3n2)cc(OC)c1OC"
numeric_value = 1.79

[[record]]
line_notation = "COc1ccc2nc(-c3ccccc3)cc(-c3ccccc3)c2c1"
numeric_value = 1.76

[[record]]
line_notation = "Brc1ccc2nc(C3CCCCC3)cc(-c3ccccc3)c2c1"
numeric_value = 1.96

[[record]]
line_notation = "Clc1ccc(-c2cc(-c3ccccc3)c3cc(Br)ccc3n2)cc1"
numeric_value = 0.20


---

# Test system: Candida albicans
# method notes: Growth inhibition of Candida albicans ATCC 10231 at 62.5 ug/ml incubated for 48 hrs under dark condition by broth microdilution assay relative to amphotericin B
# Format: functional
# particulars: ATCC 10231, 48 h, read-out: GI
measured attribute: inhibition of growth at 62.5 µg/mL (%)

[[record]]
line_notation = "Brc1ccc2nc(C3CCCCC3)cc(-c3ccccc3)c2c1"
numeric_value = 3.29

[[record]]
line_notation = "Brc1ccc2nc(-c3ccco3)cc(-c3ccccc3)c2c1"
numeric_value = 21.5

[[record]]
line_notation = "Fc1ccc(-c2cc(-c3ccccc3)c3cc(Br)ccc3n2)cc1"
numeric_value = 4.13

[[record]]
line_notation = "O=[N+]([O-])c1ccc(-c2cc(-c3ccccc3)c3cc(Br)ccc3n2)cc1"
numeric_value = 4.28

[[record]]
line_notation = "COc1cc(-c2cc(-c3ccccc3)c3cc(Br)ccc3n2)cc(OC)c1OC"
numeric_value = 20.8

[[record]]
line_notation = "COc1cc2nc(-c3ccccc3)cc(-c3ccccc3)c2c(OC)c1OC"
numeric_value = 20.7

[[record]]
line_notation = "Clc1ccc2nc(-c3ccccc3)cc(-c3ccccc3)c2c1"
numeric_value = 33.1

[[record]]
line_notation = "O=[N+]([O-])c1ccc2nc(-c3ccccc3)cc(-c3ccccc3)c2c1"
numeric_value = 5.93

[[record]]
line_notation = "O=[N+]([O-])c1ccc2c(-c3ccccc3)cc(-c3ccccc3)nc2c1"
numeric_value = 19.8

[[record]]
line_notation = "CC(C)(C)c1ccc2nc(-c3ccccc3)cc(-c3ccccc3)c2c1"
numeric_value = 0

[[record]]
line_notation = "Oc1ccc2c(-c3ccccc3)cc(-c3ccccc3)nc2c1"
numeric_value = 21.2


---

# method notes: Antifungal activity against Cryptococcus neoformans ATCC 32264 incubated for 48 hrs under dark condition by broth microdilution assay
# Type: functional
Decide using MIC50 alone. Strictly below 100 µg/mL: class 1. Equal to or above 100 µg/mL: class 0.

[[record]]
line_notation = "COc1ccc(-c2cc(-c3ccccc3)c3cc(Br)ccc3n2)cc1"
classification = "class 0"

[[record]]
line_notation = "CSc1ccc2nc(-c3ccccc3)cc(-c3ccccc3)c2c1"
classification = "class 1"

[[record]]
line_notation = "Fc1ccc(-c2cc(-c3ccccc3)c3cc(Br)ccc3n2)cc1"
classification = "class 1"

[[record]]
line_notation = "O=[N+]([O-])c1cccc(-c2cc(-c3ccccc3)c3cc(Br)ccc3n2)c1"
classification = "class 0"

[[record]]
line_notation = "Oc1ccc2nc(-c3ccccc3)cc(-c3ccccc3)c2c1"
classification = "class 0"

[[record]]
line_notation = "O=[N+]([O-])c1ccc2nc(-c3ccccc3)cc(-c3ccccc3)c2c1"
classification = "class 0"

[[record]]
line_notation = "Oc1ccc2c(-c3ccccc3)cc(-c3ccccc3)nc2c1"
classification = "class 1"

[[record]]
line_notation = "C[C@@H]1[C@H](O)[C@@H](C)/C=C/C=C/C=C/C=C/C=C/C=C/C=C/[C@H](O[C@@H]2O[C@H](C)[C@@H](O)[C@H](N)[C@@H]2O)C[C@@H]2O[C@](O)(C[C@@H](O)C[C@@H](O)[C@H](O)CC[C@@H](O)C[C@@H](O)CC(=O)O[C@H]1C)C[C@H](O)[C@H]2C(=O)O"
classification = "class 1"

[[record]]
line_notation = "Fc1ccc2nc(-c3ccccc3)cc(-c3ccccc3)c2c1"
classification = "class 0"

[[record]]
line_notation = "O=[N+]([O-])c1ccc2c(-c3ccccc3)cc(-c3ccccc3)nc2c1"
classification = "class 0"

[[record]]
line_notation = "COc1cc2nc(-c3ccccc3)cc(-c3ccccc3)c2c(OC)c1OC"
classification = "class 1"

[[record]]
line_notation = "N#Cc1ccc(-c2cc(-c3ccccc3)c3cc(Br)ccc3n2)cc1"
classification = "class 0"

[[record]]
line_notation = "Oc1cccc(-c2cc(-c3ccccc3)c3cc(Br)ccc3n2)c1"
classification = "class 0"

[[record]]
line_notation = "O=C(O)c1ccc2nc(-c3ccccc3)cc(-c3ccccc3)c2c1"
classification = "class 0"

[[record]]
line_notation = "COc1cc(-c2cc(-c3ccccc3)c3cc(Br)ccc3n2)cc(OC)c1OC"
classification = "class 1"

[[record]]
line_notation = "Cc1ccc(-c2cc(-c3ccccc3)c3cc(Br)ccc3n2)cc1"
classification = "class 1"

[[record]]
line_notation = "Brc1ccc2nc(-c3ccco3)cc(-c3ccccc3)c2c1"
classification = "class 1"

[[record]]
line_notation = "Oc1ccc(-c2cc(-c3ccccc3)c3cc(Br)ccc3n2)cc1"
classification = "class 1"

[[record]]
line_notation = "FC(F)(F)c1ccc2nc(-c3ccccc3)cc(-c3ccccc3)c2c1"
classification = "class 0"

[[record]]
line_notation = "Clc1ccc(-c2cc(-c3ccccc3)c3cc(Br)ccc3n2)cc1"
classification = "class 0"


---

# method notes: Antifungal activity against Cryptococcus neoformans ATCC 32264 incubated for 48 hrs under dark condition by broth microdilution assay
# Format: functional
One threshold, 100 µg/mL, splits the recorded MIC50 values: lower ones are True, equal or higher ones are False.

[[record]]
line_notation = "Clc1ccc2nc(-c3ccccc3)cc(-c3ccccc3)c2c1"
classification = "True"

[[record]]
line_notation = "COc1ccc2nc(-c3ccccc3)cc(-c3ccccc3)c2c1"
classification = "False"

[[record]]
line_notation = "N#Cc1ccc2nc(-c3ccccc3)cc(-c3ccccc3)c2c1"
classification = "False"

[[record]]
line_notation = "CC(C)(C)c1ccc2nc(-c3ccccc3)cc(-c3ccccc3)c2c1"
classification = "True"

[[record]]
line_notation = "c1ccc(-c2cc(-c3ccccc3)c3c4c(ccc3n2)OCO4)cc1"
classification = "True"

[[record]]
line_notation = "Brc1ccc2nc(C3CCCCC3)cc(-c3ccccc3)c2c1"
classification = "False"

[[record]]
line_notation = "FC(F)(F)c1cc2nc(-c3ccccc3)cc(-c3ccccc3)c2cc1Cl"
classification = "False"

[[record]]
line_notation = "Brc1ccc2nc(-c3ccccc3)cc(-c3ccccc3)c2c1"
classification = "True"

[[record]]
line_notation = "O=[N+]([O-])c1ccc(-c2cc(-c3ccccc3)c3cc(Br)ccc3n2)cc1"
classification = "False"


Cited source: ChEMBL document CHEMBL3875213
